Consider the following variants and their measured yeast fitness readings.
B1: tRNA (parent)
chain: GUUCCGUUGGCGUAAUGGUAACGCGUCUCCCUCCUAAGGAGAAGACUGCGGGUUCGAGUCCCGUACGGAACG

Variants of: B1
TEST DESCRIPTION: yeast fitness relative to wild type (ratio to wild type); higher = fitter; tRNA-Arg(CCU), competitive growth, 37 C, YPD
This sample holds only a part of the variants without activity.
MEASUREMENT KIND: yeast fitness

SEQ STRING	EXPERIMENTAL VALUE
GUUCCGGUGGCGUAAUGGUAACGCGUGUCCCUCCUAAGGUGAAGACUGCGGGUUCGAGUCCCGUACGCAACG [U7G C27G A40U G68C]	≤ 0.5
GUUCCGUUGGAGUAAUGGUAACGCGUCUCCUUCCUAAGGACACGACUGCGGGUUCGAGUGCCGUACGGAACG [C11A C31U G41C A43C C60G]	≤ 0.5
GUUCCAUUGGCGUAAUGGUAACGUGUCACCCUCCUAAGGAGAAGACUGCGGGUUCGAGUUCCGUACGGAACG [G6A C24U U28A C60U]	≤ 0.5
GUUCCGUUGGCGUUAUGGUAACGCGUCUUCCUCCUAAGGAGAAGACUGCGGGUUUGAGUCCCGUACGGGACG [A14U C29U C55U A69G]	≤ 0.5
GUACCGUUGGCGUAAUGGUAACGCGUCUCCCUCCUAAGGCGAAGACUGCGGGUUCGAGUUCGGUACGGAACG [U3A A40C C60U C62G]	≤ 0.5
GAUCCAUUGGUGUAAUGGUAACGCGUCUCCGUCCUAAGGAGAAGACUGCGGGUUCGAGUCCCGUACGGUACG [U2A G6A C11U C31G A69U]	≤ 0.5
GUUCCGUUGGCGUCAUGGUAACGCGUCUCCCUACUAAGGAUAAGACUGUGGGUUCGAGUCCCGUAUGGAACG [A14C C33A G41U C49U C66U]	≤ 0.5
GUUCCGUUGGCGUACUGGUAACGCAUAUCCCUUAUAAGGAGAAGACUGCGGGUUCGAGUCUCGUACGGAACG [A15C G25A C27A C33U C34A C61U]	≤ 0.5
GUUCCGUUGGCGUAAUCGUAACGCGUCACCCUCGUAAAGAGAAGACUGCGGGUUCGAGACCCGUACGGAACG [G17C U28A C34G G38A U59A]	≤ 0.5
GUUCCGUUGGCGUAAUGGUAAGGCGUCUCCCUCGAUAGGAGAAGACUGCGGGUUUGAGUCCCGUACGGAACG [C22G C34G U35A A36U C55U]	≤ 0.5
GUUCCGUUGGCGCCACGGUAACGCGUCUCCCUCCUAAGGAGAAGACUGCGGGUUCGAGUCCCGCCCGGAACG [U13C A14C U16C U64C A65C]	≤ 0.5
GUUCCGUUGGCGUAGUGGUAACGCGUCUCUAUCCUCAGGAGAAGACUGCGGGUUCGAGUCCCGUACGGAACG [A15G C30U C31A A36C]	≤ 0.5
GUUCCGUUGGCGUAAUGCUAACGCGUCUUCCUCCUAAGGAGAGGACUGAGGGUUCGAGUCCCGUACGGAACG [G18C C29U A43G C49A]	≤ 0.5
GUUCUGCUGGCGUAAUGGUAACGAGUCUCCCUCCUAAGGAGAAGACUGCGGGUUCGAGUCUCGUACGGAACG [C5U U7C C24A C61U]	≤ 0.5
GUUGCGUUGGCGUAAUGGUAACGCGUCUCCCUCCUAAGGAAAAGUCUGCGGGUUCCAGUCCCGUACGGAACG [C4G G41A A45U G56C]	≤ 0.5
GUUCCGUUGGCGUAAUGGUAACGCGUCUCACUCCUAAGGAGAAACCUGCGGGUUCGAGUCCCGUACGGAUCG [C30A G44A A45C A70U]	≤ 0.5
GUUCAGUUGGCGUAUUGGUAACGCGUCUCCGUCCUAAGAAGAAGACUGCGGGUUCGUGUACCGUACGGAACG [C5A A15U C31G G39A A57U C60A]	≤ 0.5
GAUCCGUUGGCGUAAUGGUAACGCGUCUCUCUCCUAAGGAGGAGACUGCGGGUUCGAGUGCGGUGUGGAACG [U2A C30U A42G C60G C62G A65G C66U]	≤ 0.5
GUUCUGUUGGCGUAAUGGUAUCGCGUCUCCCUCCUACGGAGAAGACUGCGGGUUCGAGUCACGUCCGGAACG [C5U A21U A37C C61A A65C]	≤ 0.5
GUUCCGUUGGCGUAAUGGAAAUGCGUCUCCCCCCUAAGGAGAAGACUGCGGGUUCGAGUGCCGUACGGAACG [U19A C22U U32C C60G]	≤ 0.5
GUUCCGUUGGCGUAUUGGUAACGCGUCUCCCUCCUAACGAGAAGACUGCCGGUUCGAGUUCCGUACGGAACG [A15U G38C G50C C60U]	≤ 0.5
GUUCCGUUGGCGUAAUGGUAACGCGUCUCCCUCCUAAGGAGCAGCCUGCGGGAUCGAGUCCCGUCCGGUACG [A42C A45C U53A A65C A69U]	≤ 0.5
GUUCCGUUGGGGUAAAGGUAACGCGUCCUCCUCCUAAGAAGAAGACUGCGGGUUCGAGGCCCGUACUGAACG [C11G U16A U28C C29U G39A U59G G67U]	≤ 0.5
GUUCCCUUGGUGUAAUGGUAACGCGUGUCCCUCCUAAGGACAAGACUGCGGGUUCGAGUCCCGUACGGAACG [G6C C11U C27G G41C]	≤ 0.5
